target: recombinant human NK3 receptor (Homo sapiens, UniProt P29371); construct: expressed in transfected cells; host or cells: HEK293 cells, transient expression; membrane preparation; experiment: [3H]SR142801 competition binding assay; conditions: [3H]SR142801, membranes of HEK293 cells transiently expressing recombinant human NK3 receptor; read-out: hNK3 Ki
Sequence (P29371 whole entry): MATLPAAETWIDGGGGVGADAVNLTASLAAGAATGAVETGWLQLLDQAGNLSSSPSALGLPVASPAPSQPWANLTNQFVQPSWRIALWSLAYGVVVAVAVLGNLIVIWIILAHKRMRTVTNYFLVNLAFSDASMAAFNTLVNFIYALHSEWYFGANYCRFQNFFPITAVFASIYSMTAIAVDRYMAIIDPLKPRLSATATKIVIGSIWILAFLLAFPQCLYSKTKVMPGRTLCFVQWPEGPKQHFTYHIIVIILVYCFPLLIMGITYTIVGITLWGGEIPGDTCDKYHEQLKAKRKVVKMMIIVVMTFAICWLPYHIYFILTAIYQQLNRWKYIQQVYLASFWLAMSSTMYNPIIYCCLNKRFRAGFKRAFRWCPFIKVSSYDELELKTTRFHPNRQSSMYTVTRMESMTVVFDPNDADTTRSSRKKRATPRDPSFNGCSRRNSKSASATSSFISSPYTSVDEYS
Hi there, I'd appreciate the recorded pKi for every entry that follows.
pKi here is simply -log10 of the concentration when that concentration is written in mol/L.

Return pKi for the following molecule: CC(CCN1CCC(NS(C)(=O)=O)CC1)(C(=O)NCc1ccc(Cl)c(F)c1)c1ccc(Cl)c(Cl)c1 (centres unmarked)
7.15

Return pKi (reported value) for this molecule: CCCN(C(C)=O)C1CCN(CCC(C)(C(=O)N[C@H](CC)c2ccccc2)c2ccc(Cl)c(Cl)c2)CC1 (some centres unmarked)
7.84

Report pKi, nothing else, for this molecule: CC(=O)N(C)C1CCN(CCC(C)(C(=O)N(C)Cc2ccccc2Cl)c2ccc(Cl)c(Cl)c2)CC1 (centres unmarked)
7.92

Specify pKi for CCN(C1CCN(CCC(C)(C(=O)N(C)Cc2ccc(Cl)c(C(F)(F)F)c2)c2ccc(Cl)c(Cl)c2)CC1)S(C)(=O)=O (centres unmarked) and stop.
8.82

Report pKi, nothing else, for this molecule: CC(=O)N(C)C1CCN(CCC(C)(C(=O)NC(CO)c2ccc(F)cc2)c2ccc(Cl)c(Cl)c2)CC1 (single isomer, unassigned; diastereoisomer 1)
7.53

Check the records and state pKi for CN(Cc1ccc(Cl)c(C(F)(F)F)c1)C(=O)C(C)(CCN1CCC(N2CCCC2=O)CC1)c1ccc(Cl)c(Cl)c1 (centres unmarked)
8.85

Specify pKi for CN(Cc1ccc(Cl)cc1)C(=O)C(C)(CCN1CCC(N2CCCC2=O)CC1)c1ccc(Cl)c(Cl)c1 (centres unmarked) and stop.
8.68

Please give measured pKi of the following entry: CN(Cc1ccc(Cl)c(C(F)(F)F)c1)C(=O)C(C)(CCN1CCC(N(C2CC2)S(C)(=O)=O)CC1)c1ccc(Cl)c(Cl)c1 (centres unmarked)
8.44

Quick one: give measured pKi for CN(Cc1cccc(Cl)c1)C(=O)C(C)(CCN1CCC(N2CCCC2=O)CC1)c1ccc(Cl)c(Cl)c1 (centres unmarked)
8.34

Note pKi for the molecule shown: CCCN(C(C)=O)C1CCN(CCC(C)(C(=O)N[C@@H](CO)c2ccc(F)cc2)c2ccc(Cl)c(Cl)c2)CC1 (single isomer, unassigned; epimer 1) [Example 162]
9.30

Look up and state reported pKi for CN(Cc1ccc(C(F)(F)F)cc1)C(=O)C(F)(CCN1CCC(NS(C)(=O)=O)CC1)c1ccc(Cl)c(Cl)c1 (centres unmarked)
7.07

Look up and state reported pKi for CC(=O)N(C)C1CCN(CCC(C)(C(=O)NCc2ccc(Cl)c(Cl)c2)c2ccc(Cl)c(Cl)c2)CC1 (centres unmarked)
8.17

State its pKi for this molecule: CCN(C1CCN(CCC(C)(C(=O)N(C)Cc2ccccc2Cl)c2ccc(Cl)c(Cl)c2)CC1)S(C)(=O)=O (centres unmarked)
8.44

Give reported pKi value for CC(=O)N(C)C1CCN(CCC(C)(C(=O)N(C)Cc2ccc(Cl)c(Cl)c2)c2ccc(Cl)c(Cl)c2)CC1 (centres unmarked)
8.52

----------
target: recombinant human NK3 receptor (Homo sapiens); construct: expressed in transfected cells; host or cells: HEK293 cells, transient expression; membrane preparation; experiment: [3H]SR142801 competition binding assay; details: [3H]SR142801, membranes of HEK293 cells transiently expressing recombinant human NK3 receptor; read-out: hNK3 Ki
pKi: −log10 of the molar value.
Please mark condition met if the recorded pKi is equal to or greater than 7, and condition not met if it falls below.

Item CC(=O)N(C)C1CCN(CCC(C)(C(=O)N[C@@H](CO)c2ccc(Cl)cc2)c2ccc(Cl)c(Cl)c2)CC1 (some centres unmarked) with pKi of 7 or above?
condition met

Could you tell me if the measured pKi of CC(CCN1CCC(N2CCCC2=O)CC1)(C(=O)N[C@@H](CO)c1ccc(F)cc1)c1ccc(Cl)c(Cl)c1 (single isomer, unassigned) [Example 129] reaches 7 or more?
condition met

// inclusive: pKi at least 7? input: CC(NC(=O)C(C)(CCN1CCC(NS(C)(=O)=O)CC1)c1ccc(Cl)c(Cl)c1)c1ccc(Cl)cc1 (centres unmarked)
condition not met

Please indicate if the recorded pKi for CC(=O)N(C)C1CCN(CCC(C)(C(=O)NC(c2ccc(F)cc2)C(F)(F)F)c2ccc(Cl)c(Cl)c2)CC1 (centres unmarked) meets or exceeds 7.
condition met

Hi team, for CC(=O)N(C)C1CCN(CCC(C)(C(=O)N(C)Cc2ccc(C(F)(F)F)cc2)c2ccc(Cl)c(Cl)c2)CC1 (centres unmarked) , is the recorded pKi at or above 7?
condition met

Exam item: decide whether the reported pKi for CN(Cc1cccc(C(F)(F)F)c1)C(=O)C(CCN1CCC(NS(C)(=O)=O)CC1)c1ccc(Cl)c(Cl)c1 (centres unmarked) is at least 7.
condition not met

Exam item: decide whether the reported pKi for CN(Cc1ccc(C(F)(F)F)nc1)C(=O)C(C)(CCN1CCC(NS(C)(=O)=O)CC1)c1ccc(Cl)c(Cl)c1 (centres unmarked) is at least 7.
condition not met

Determine whether this compound has pKi no lower than 7: CC(CCN1CCC(N2CCCC2=O)CC1)(C(=O)N[C@H](CO)c1ccc(Cl)c(Cl)c1)c1ccc(Cl)c(Cl)c1 (single isomer, unassigned; diastereoisomer 2)
condition met

Answer whether pKi of CC(NC(=O)C(C)(CCN1CCC(NS(C)(=O)=O)CC1)c1ccc(Cl)c(Cl)c1)c1ccc(Cl)c(Cl)c1 (centres unmarked) is greater than or equal to 7.
condition met

Dear colleague, could you confirm whether CN(Cc1ccc(Cl)c(Cl)c1)C(=O)C(C)(CCN1CCC(N(C)S(C)(=O)=O)CC1)c1ccc(Cl)c(Cl)c1 (centres unmarked) has pKi at or above 7?
condition met

Given CN(Cc1ccc(C(F)(F)F)c(F)c1)C(=O)C(C)(CCN1CCC(N(C)S(C)(=O)=O)CC1)c1ccc(Cl)c(Cl)c1 (centres unmarked) , state whether its pKi is at least 7.
condition met
